B1: KIAA0774 (parent)
chain: FEDEVKRLGWQQQAELQELEERLQ

variants of: B1; test: protein stability index of a GFP-peptide fusion (GPS, HEK-293T) (PSI 1-6); higher = more stable; settings: c terminus: a fixed tail appended;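 further: lentivirally expressed fusions sorted by FACS into six bins by GFP to DsRed ratio, PSI derived from sequencing read proportions per bin multiplied by bin number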
Field: protein stability index. Provide a value for each of the variants that follow.
One number for each entry.

// below: answered variants
[
  {
    "Input sequence": "FEDEVKRLGWQQQAEIQELEERLQ",
    "protein stability index": 3.89
  },
  {
    "Input sequence": "FEDEVKRLGWQQQAELQELEERLS",
    "protein stability index": 4.01
  },
  {
    "Input sequence": "FEDEVKRLGWQQQASLQELEERLQ",
    "protein stability index": 4.05
  }
]

Problem: # query: protein stability index of entry `FEDEVKRFGWQQQAELQELEERLQ`
Result: 3.98

Reference source for all entries: the supplement of paper PMC10567573
